test: Lipophilicity, log D of the compound at pH 7.4; type: physicochemical; conditions: buffer
REPORTED PROPERTY: logD

{"MOLECULE": "O=C(c1c(Cl)cccc1C(F)(F)F)c1nc(N2CCC(C(=O)O)CC2)c2ccccn12", "REPORTED PROPERTY": "logD", "DATA VALUE": 0.4}
{"MOLECULE": "O=C(O)c1ccc(-c2nn(C(=O)c3c(Cl)cccc3C(F)(F)F)c3ccccc23)cc1", "REPORTED PROPERTY": "logD", "DATA VALUE": 2.9}
{"MOLECULE": "O=C(c1c(Cl)cccc1C(F)(F)F)c1nc([C@H]2CC[C@H](C(=O)O)CC2)c2ccccn12", "REPORTED PROPERTY": "logD", "DATA VALUE": 1.3}
{"MOLECULE": "O=C(c1c(Cl)cccc1C(F)(F)F)c1nc(C2=CCC(C(=O)O)CC2)c2ccccn12 (stereo not given)", "REPORTED PROPERTY": "logD", "DATA VALUE": 1.5}
{"MOLECULE": "N#Cc1cccc(Cl)c1C(=O)c1nc(-c2ccc(C(=O)O)cc2F)c2n1CCCC2", "REPORTED PROPERTY": "logD", "DATA VALUE": 0.7}
